target: Tyrosine-protein phosphatase non-receptor type 5 (Homo sapiens) (UniProt P54829); test: STEP phosphatase inhibitors, primary screen, biochemical, fluorescence intensity, uHTS (AID 588621); conditions: recombinant STEP, OMFP fluorogenic substrate, at 20 µM;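 also: 0% = DMSO with enzyme and substrate and 100% = substrate only without enzyme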
Sequence (P54829 whole entry, looked up): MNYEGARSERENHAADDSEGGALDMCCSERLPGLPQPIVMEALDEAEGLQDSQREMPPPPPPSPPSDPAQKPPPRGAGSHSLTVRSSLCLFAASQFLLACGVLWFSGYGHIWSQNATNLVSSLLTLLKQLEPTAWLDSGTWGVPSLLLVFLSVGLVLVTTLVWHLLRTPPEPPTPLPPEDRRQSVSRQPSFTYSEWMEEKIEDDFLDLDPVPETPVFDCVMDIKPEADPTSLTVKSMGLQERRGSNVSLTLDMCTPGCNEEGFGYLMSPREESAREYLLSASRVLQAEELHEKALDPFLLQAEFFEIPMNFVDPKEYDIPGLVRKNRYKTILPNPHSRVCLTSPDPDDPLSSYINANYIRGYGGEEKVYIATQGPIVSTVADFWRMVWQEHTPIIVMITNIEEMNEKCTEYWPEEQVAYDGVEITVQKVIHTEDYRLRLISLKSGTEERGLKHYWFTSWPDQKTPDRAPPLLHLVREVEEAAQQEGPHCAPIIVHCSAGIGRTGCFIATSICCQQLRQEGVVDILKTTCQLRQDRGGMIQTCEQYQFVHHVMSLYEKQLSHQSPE
The campaign covered roughly 360,000 compounds. About 890 (0.25%) were called active.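 The calls were made as follows: active = inhibition at 20 µM, scaled per plate between control wells, above about 37% (limit read from the data); inactive = the rest.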 Only a selection was taken, and actives are over-represented in it overall.
Pick one: active, inactive

(Q) Outcome? CC1CN(C(=O)COC(=O)c2cccc(NS(=O)(=O)c3ccccc3)c2)CC(C)O1 (stereo not given)
(A) inactive

(Q) Request: Cc1[nH]c2ccccc2c1C(=O)C(=O)NCc1nnnn1-c1cccc(F)c1
(A) inactive

(Q) Request: CCc1ccc(NC(=O)CS(=O)CC(=O)NCCCc2ccccc2)cc1 (stereo not given)
(A) active

(Q) Request: Cc1ccc(C(=O)N(CC(=O)NC2CCCC2)c2ccc(F)cc2)s1
(A) inactive

(Q) Request: Cc1ccnc(NS(=O)(=O)c2ccc(NC(=O)c3ccc(S(=O)(=O)N(C)C)cc3)cc2)n1
(A) inactive

###

target: Tyrosine-protein phosphatase non-receptor type 5 (Homo sapiens); assay: STEP phosphatase inhibitors, primary screen, biochemical, fluorescence intensity, uHTS (AID 588621); details: recombinant STEP, OMFP fluorogenic substrate, at 20 µM;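 also: 0% = DMSO with enzyme and substrate and 100% = substrate only without enzyme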
Out of some 360,000 compounds screened, about 890 (0.25%) were called active.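 How the source made its calls: active means inhibition at 20 µM, scaled per plate between control wells, above about 37% (limit read from the data); inactive means the rest.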 For the sample, actives were picked, then their nearest neighbours and some compounds at random.
Pick one: active, inactive

(Q) Outcome? Cc1ccc(C(C)(C)C)c(OCCCCN2CCCC2)c1
(A) inactive

(Q) Request: Cc1ccc(S(=O)(=O)NN=C2CC(C)(C)CC(=O)C2(C)C)cc1
(A) inactive

(Q) Request: CCOc1ccc(NC(=O)c2ccc(NC(=O)CN3C(=O)C(=O)N(CC(C)C)C3=O)cc2)cc1
(A) inactive

(Q) Request: Cc1ccc(-n2c(SCC(=O)NCc3ccc4c(c3)OCO4)nnc2-c2cccnc2)c(C)c1
(A) inactive

(Q) Request: O=C(CSc1nnc(COc2ccc(Cl)cc2)n1Cc1ccco1)N1CCNC1=O
(A) inactive

(Q) Request: CC(C)NS(=O)(=O)c1ccc(OCC(=O)NC2CCCCCC2)cc1
(A) inactive

(Q) Request: Cc1cc(C(=O)N2CCN(c3ccccn3)CC2)c(C)o1
(A) active

(Q) Request: O=C(c1cc2ccccc2s1)N1CCN(c2ccccn2)CC1
(A) inactive

(Q) Request: O=C(c1c(F)cccc1Cl)N1CCN(c2ccccn2)CC1
(A) inactive

(Q) Request: Cc1ccc(S(=O)(=O)N2CCN(C(=O)CCC(=O)NC3CCCc4ccccc43)CC2)cc1 (stereo not drawn)
(A) inactive

(Q) Request: COCc1c(C(=O)N/N=C/C2CC=CCC2)nnn1-c1nonc1N (stereo not drawn)
(A) active

(Q) Request: Cc1ccc(OCC(=O)NCCCNC(=O)c2cccnc2)cc1C
(A) inactive

(Q) Request: Cc1ccc(OCC(=O)Nc2ccc(-c3nc4ncccc4o3)cc2)cc1
(A) active

(Q) Request: CCc1ccccc1N(CC(=O)NCCSCc1ccco1)S(C)(=O)=O
(A) inactive

(Q) Request: CC(=O)c1ccc(NC(=O)CSC(=S)N2CCCC2)cc1
(A) inactive

(Q) Request: COc1ccc2c(c1)CCc1c(C(=O)N3CCc4ccccc4C3)noc1-2
(A) inactive

(Q) Request: COc1ccc(NC(=O)COc2ccc(C(=O)OCC(=O)N(C)C3CCS(=O)(=O)C3)cc2OC)cc1 (stereo not drawn)
(A) inactive

(Q) Request: Cc1cccc(-n2c(N)c(C(=O)N3CCN(C)CC3)sc2=S)c1
(A) active

(Q) Request: CCOC(=O)C1CCN(c2c(Nc3cc(C)cc(C)c3)c(=O)c2=O)CC1
(A) inactive

(Q) Request: Cc1ccc(S(=O)(=O)c2c[nH]c3ccc(Cl)cc3c2=O)cc1
(A) active

(Q) Request: C[C@H]1CN([C@@H](C)CO)C(=O)Cc2cc(NS(C)(=O)=O)ccc2O[C@@H]1CN(C)CC1CC1
(A) inactive

(Q) Request: Cc1ccc(-n2c(N)c(C(=O)N3CCOCC3)sc2=S)c(C)c1
(A) inactive

(Q) Request: CC(C)C(O)C1CCN(Cc2nc(Cc3ccccc3Cl)no2)CC1 (stereo not drawn)
(A) inactive

(Q) Request: Cc1cc(OC(=O)c2ccccc2)c([N+](=O)[O-])c(=O)[nH]1
(A) inactive

(Q) Request: Cc1ccc(-n2c(C)nnc2SCC(=O)NC2CC2)cc1
(A) inactive

(Q) Request: Cc1ccccc1NC(=O)C(C)OC(=O)CCC(=O)N(CC(C)C)c1c(N)n(CC(C)C)c(=O)[nH]c1=O (stereo not drawn)
(A) inactive

(Q) Request: O=c1ccc2c(-c3ccccc3S(=O)(=O)O)c3ccc(O)c(O)c3oc-2c1O
(A) active

(Q) Request: O=C(NCc1ccco1)C1CCCN(S(=O)(=O)c2ccccc2)C1 (stereo not drawn)
(A) inactive

(Q) Request: CC(=O)c1nc(N2C(=O)C3CC=C(C)CC3C2=O)sc1C (stereo not drawn)
(A) inactive

(Q) Request: N#Cc1ccccc1-n1c(N)c(C(=O)N2CCCC2)sc1=S
(A) inactive

(Q) Request: CN(C(=O)COC(=O)Cc1ccccc1[N+](=O)[O-])C1CCS(=O)(=O)C1 (stereo not drawn)
(A) inactive

(Q) Request: COc1cccc(COC(=O)C2CCN(S(=O)(=O)c3cccs3)CC2)c1OC
(A) inactive

(Q) Request: CCN(CC)CCn1cnc2c1c(=O)n(CCOC(=O)c1cc(OC)c(OC)c(OC)c1)c(=O)n2C
(A) inactive

(Q) Request: COC(=O)C1=C(C)NC(=S)NC1c1ccc(OCC(=O)N2CC(C)OC(C)C2)c(OC)c1 (stereo not drawn)
(A) inactive

(Q) Request: CC(C)(C)c1ccc(SCCc2ccncc2)cc1
(A) inactive

(Q) Request: C=CCO/N=C(\C)c1c(O)c(C)c(-c2ccccc2)n(-c2ccccc2)c1=O
(A) inactive

(Q) Request: CNC(=O)NC(=O)C(OC(=O)c1cccc(S(=O)(=O)N2CCCCC2)c1)c1ccccc1 (stereo not drawn)
(A) inactive

(Q) Request: O=C(CCc1ccccc1)Nc1ccc(NC(=O)C2CC2)nc1
(A) inactive

(Q) Request: Cc1ccc2nc(-c3ccc(NC(=O)c4cccnc4)cc3)oc2c1
(A) inactive

(Q) Request: O=C(NCc1ccco1)C1CCCN(S(=O)(=O)c2cnc[nH]2)C1 (stereo not drawn)
(A) inactive

(Q) Request: CC(C)C1CC2=C(C(=O)OC(C)(C)O2)C(c2ccc(F)cc2)O1 (stereo not drawn)
(A) inactive

(Q) Request: COc1ccc(C2=NOC(Cn3nc(C(=O)NCc4ccc5c(c4)OCO5)cc3-c3ccccc3)C2)cc1 (stereo not drawn)
(A) inactive

(Q) Request: O=C(CSC(=S)N1CCCCC1)c1c(F)cccc1F
(A) active

###

biological target: Tyrosine-protein phosphatase non-receptor type 5 (Homo sapiens) (UniProt P54829); experiment: STEP phosphatase inhibitors, primary screen, biochemical, fluorescence intensity, uHTS (AID 588621); conditions: recombinant STEP, OMFP fluorogenic substrate, at 20 µM, hits give high values;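 also: 0% = DMSO with enzyme and substrate and 100% = substrate only without enzyme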
Screen size: about 360,000 compounds; about 890 (0.25%) were called active. The sample holds actives, similar compounds and a random draw of the others, so the mix is not that of the screen.
I'd appreciate it if you could supply inhibition values for the items below.
Your answer should be a plain number; it is taken to be in %.

(Q) Which inhibition is listed for Cc1cc(F)ccc1S(=O)(=O)Nc1ccc(C(=O)N(C)Cc2ccco2)cc1 ?
(A) 2.5

(Q) Request: COc1ccccc1NC(=O)C(C)OC(=O)CC1CCCC1 (stereo not given)
(A) -2.3

(Q) Request: Cc1cc2nc(C)n(CCCNC(=O)Nc3ccccc3)c2cc1C
(A) -3.8

(Q) Request: Cc1cc(-c2nnc(SCC(=O)Nc3ccc(F)cc3)n2N)n[nH]1
(A) -1.1

(Q) Request: CCCCc1nccn1CCn1ccnc1CCCC
(A) 1.5

(Q) Request: CCc1ccc(C(=O)CSc2nnc(C)c(=O)[nH]2)cc1
(A) -1

(Q) Request: O=C(OCC(=O)N1CCN(C(=O)c2ccco2)CC1)c1ccccc1Cc1ccccc1
(A) -3.5

(Q) Request: CCc1cc(-c2nnn(CCC3COCCO3)c2CC)ccc1-c1cn(Cc2ccc3ccccc3c2)nn1 (stereo not given)
(A) 2.9

(Q) Request: COc1ccc(-c2c(-c3cc(OC)cc(OC)c3)n(C)c3ccc(-c4ccn[nH]4)cc23)cc1
(A) -1.9

(Q) Request: Cc1ccn2c(=O)nc(SCC(=O)NCc3ccc(F)cc3)nc2c1
(A) 0.1

(Q) Request: Cc1ccc(-c2csc(N3CCN(c4cc5c(cc4Cl)nc(-c4ccncc4)n5CCOCCO)CC3)n2)cc1
(A) 2.3

(Q) Request: N#Cc1c(-c2cccs2)nc(SCC(=O)c2ccc(Br)cc2)[nH]c1=O
(A) 78.8

(Q) Request: CCOc1ccc(N(CC(=O)NCC2CCCO2)S(=O)(=O)c2ccc(C)cc2)cc1 (stereo not given)
(A) 0.9

(Q) Request: CCc1ccc(C2C(C#N)=C(N)N(N3CCOCC3)C3=C2C(=O)CC(C)(C)C3)s1 (stereo not given)
(A) -1.9

(Q) Request: COc1cccc(/C=C/C(=O)OCC(=O)N2CCCc3ccccc32)c1
(A) -1.7

(Q) Request: COc1ccc(C2COC(=O)C2=N)c(NC(=O)c2ccccc2)c1 (stereo not given)
(A) 1.3

(Q) Request: CC(C)(C)OC(=O)NCCCCCC(=O)N/N=C/c1coc2ccccc2c1=O
(A) -1.9

(Q) Request: Cn1ncc(Br)c1C(=O)NC1CCCC1
(A) -1.6

(Q) Request: N#Cc1c(-c2ccccc2)nc(SCc2cccc(C(F)(F)F)c2)[nH]c1=O
(A) 2.7

(Q) Request: Cc1c(/C=N\NC(=O)c2cc3ccccc3o2)c2ccccc2n1C
(A) -0.5

(Q) Request: Cc1cc(Cl)ccc1NC(=S)N1CCC(C(N)=O)(N2CCCCC2)CC1
(A) -1.3

(Q) Request: CC(O)C(NS(=O)(=O)c1ccc(Cl)cc1)C(=O)OCc1cc([N+](=O)[O-])cc2c1OCOC2 (stereo not given)
(A) -3.7

(Q) Request: Cc1ccn2c(-c3csc(Nc4ccc(C(=O)O)cc4)n3)c(C)nc2c1
(A) 41.9

(Q) Request: CCCCC(=O)Nc1nc(C)c(-c2csc(Nc3ccc(Cl)cc3)n2)s1
(A) -1.7

(Q) Request: CCc1cccc(NC(=S)N(CCN(C)C)C2CCN(C(C)C)CC2)c1
(A) 4.4

(Q) Request: CCCC(=O)N1CCC1(C)C(=O)NCc1ccc(C(C)C)cc1 (stereo not given)
(A) 1.5

(Q) Request: CCCCNC1(C#N)CCN(Cc2ccccc2)CC1
(A) -2.5

(Q) Request: CCOc1nnc(C)c2c(C)n(-c3cccc(Cl)c3)nc12
(A) -2.6

(Q) Request: COc1cc(OC)c(-n2cc(-c3ccc(Cl)cc3)[nH]c2=O)cc1Cl
(A) 0.7

(Q) Request: O=C1C(=O)N(CCN2CCOCC2)C(c2ccccn2)/C1=C(/O)c1ccc(Cl)cc1 (stereo not given)
(A) -3.3

(Q) Request: O=S(=O)(Nc1ccccc1Cl)c1cccc2nsnc12
(A) 52.9

(Q) Request: COc1ccc(CCNC(=O)Nc2ccc3c(c2)c(=O)n(C)n3C)cc1OC
(A) 1.1

(Q) Request: COc1ccc(S(=O)(=O)NC(C)C(=O)NCc2ccncc2)cc1Cl (stereo not given)
(A) -1.3

(Q) Request: O=C(N/N=C/c1coc2ccccc2c1=O)c1cc2ccccc2o1
(A) 43.4

(Q) Request: CC1CCN(C(=O)CN(c2ccc(Oc3ccccc3)cc2)S(C)(=O)=O)CC1
(A) 2.5

(Q) Request: COc1ccc(NS(=O)(=O)c2cccc3nsnc23)cc1Cl
(A) -1.2

(Q) Request: COC(=O)c1cc2occc2n1Cc1nc(-c2ccccc2C)oc1C
(A) -0.6

(Q) Request: Cc1ccc(-n2c(C)cc(/C=C(\C#N)C(=O)NCC3CCCO3)c2C)cc1 (stereo not given)
(A) 0.4

(Q) Request: CN(C)Cc1c(O)ccc2c(=O)c(-c3ccccc3Cl)coc12
(A) 0.4

(Q) Request: CC1=CC(C)(C)NC(=S)N1c1ccccc1
(A) -2.2

(Q) Request: CCc1nc2c(OCCC3CCCCC3)cccn2c1N(C)C(=O)c1ccco1
(A) 4.5

(Q) Request: O=C(N/N=C\c1cccc(Br)c1)c1ccccc1-n1cccc1
(A) -2.3

(Q) Request: CCNC(=O)C1CCCN(C(=O)c2cc(F)ccc2C)CC1 (stereo not given)
(A) 1

(Q) Request: CN1CCN(C(=O)c2ccccc2NC(=O)COc2ccccc2Cl)CC1
(A) -2.4

(Q) Request: COCCNC(=O)Nc1ccc2nc(-c3ccco3)c(-c3ccco3)nc2c1
(A) 60.1
